# protocol-text: chemical genetic growth profiling, strain panel (AID 1159580);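 further: tested at 20 µM; growth read once vehicle control cultures reached saturation at 30 °C; 1 = growth at the plate median or of vehicle wells; lower values mean less growth of the strain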
# assay-conditions: S. cerevisiae deletion strains, growth OD, locus YDR318W, strain mcm21, active compounds read low
Out of some 5,500 compounds screened, about 2,000 (36%) were called active. Not shown: some 18% with an inconclusive outcome. The list shows a part of the results.
parameter-measured: normalized growth

INSERT INTO results (compound, test_value) VALUES
  ('CC(=O)O[C@@H]1CC2C(C)(C)[C@H](O)C=C[C@]2(C)C2CC[C@]3(C)C(=CC(=O)O[C@H]3c3ccoc3)[C@@]21C (some centres undefined)', 1),
  ('CC(=O)OC1CCC2(C)C(CC(OC(C)=O)C3(C)C4=CC(=O)OC(c5ccoc5)C4(C)CCC23)C1(C)C (centres undefined)', 0.992),
  ('CC(=O)O[C@@H]1CC2C(C)(C)C(=O)C=C[C@]2(C)C2CC[C@]3(C)C(=CC(=O)O[C@H]3c3ccoc3)[C@@]21C (some centres undefined)', 0.983),
  ('CC(=O)O[C@@H]1CC[C@@]2(C)C(C[C@@H](OC(C)=O)[C@@]3(C)C4=CC(=O)O[C@@H](c5ccoc5)[C@]4(C)CCC23)C1(C)C (some centres undefined)', 1);
